Target: Bcat-Halo (UniProt P35222)
Sequence (P35222 whole entry): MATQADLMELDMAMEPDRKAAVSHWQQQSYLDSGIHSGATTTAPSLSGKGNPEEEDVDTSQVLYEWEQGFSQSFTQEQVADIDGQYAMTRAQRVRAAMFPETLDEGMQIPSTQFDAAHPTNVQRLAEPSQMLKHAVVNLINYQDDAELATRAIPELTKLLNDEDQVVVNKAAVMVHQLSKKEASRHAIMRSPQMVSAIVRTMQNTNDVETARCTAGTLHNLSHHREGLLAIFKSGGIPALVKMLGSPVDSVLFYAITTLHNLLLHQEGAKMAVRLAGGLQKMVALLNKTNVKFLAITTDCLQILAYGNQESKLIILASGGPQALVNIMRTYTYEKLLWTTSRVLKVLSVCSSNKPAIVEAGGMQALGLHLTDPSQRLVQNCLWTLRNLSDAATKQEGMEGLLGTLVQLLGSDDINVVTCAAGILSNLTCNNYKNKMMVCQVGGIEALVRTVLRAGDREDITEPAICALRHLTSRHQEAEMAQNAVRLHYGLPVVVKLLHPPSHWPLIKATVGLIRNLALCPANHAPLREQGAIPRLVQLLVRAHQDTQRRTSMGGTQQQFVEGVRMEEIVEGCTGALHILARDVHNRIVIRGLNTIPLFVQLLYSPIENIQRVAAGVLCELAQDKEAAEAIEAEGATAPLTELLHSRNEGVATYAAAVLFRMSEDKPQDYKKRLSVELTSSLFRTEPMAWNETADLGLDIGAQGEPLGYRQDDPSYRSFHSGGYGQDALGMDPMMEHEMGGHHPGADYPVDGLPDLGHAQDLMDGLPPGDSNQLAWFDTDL
Assay: NanoBRET Abs IC50, Bcat-Halo/TCF4-Luc in HEK293 cells
pIC50: −log10 of the molar value. Starred links: 1 amine or outer side, 2 acyl side, 3 side chain; linkers in the order of their positions; H or OH if unused. Positions of bridges follow the written chain, without caps; N, C: chain ends. Non-standard residues stand in square brackets, D forms with d. Primed or numbered codes have the meaning given here. PyrS2″ = (S)-3-amino-1-((pent-4-en-1-yloxy)carbonyl)pyrrolidine-3-carboxylic acid (stapling residue), C=CCCCOC(=O)N1CC[C@@](N[*:1])(C(=O)[*:2])C1; B5(18) = 2,2-bis(4-pentenyl)glycine (2-amino-2-(pent-4-en-1-yl)hept-6-enoic acid), stitching residue, C=CCCCC(CCCC=C)(N[*:1])C(=O)[*:2]; B5(5) = 2,2-bis(4-pentenyl)glycine, 2-amino-2-(pent-4-en-1-yl)hept-6-enoic acid (stitching residue), C=CCCCC(CCCC=C)(N[*:1])C(=O)[*:2]; 5F3Me3COOHF = (S)-3-(2-amino-2-carboxyethyl)-5-(trifluoromethyl)benzoic acid, O=C([C@H](Cc1cc(C(=O)[*:3])cc(C(F)(F)F)c1)N[*:1])[*:2]; TfeGA = (S)-2-amino-3-((carboxymethyl)(2,2,2-trifluoroethyl)amino)propanoic acid, O=C([C@H](CN(CC(=O)[*:3])CC(F)(F)F)N[*:1])[*:2]; PyrS2 = (S)-3-amino-1-((pent-4-en-1-yloxy)carbonyl)pyrrolidine-3-carboxylic acid, C=CCCCOC(=O)N1CC[C@@](N[*:1])(C(=O)[*:2])C1; B5(3) = 2,2-bis(4-pentenyl)glycine (stitching residue), C=CCCCC(CCCC=C)(N[*:1])C(=O)[*:2]; Phe(3-COOH) = N[C@@H](Cc1cccc(C(=O)O)c1)C(=O)O; 2F3MeF = Cc1cccc(C[C@H](N[*:1])C(=O)[*:2])c1F; Phe(4-Cl) = N[C@@H](Cc1ccc(Cl)cc1)C(=O)O; Phe(2-Cl) = N[C@@H](Cc1ccccc1Cl)C(=O)O; Phe(2-F) = N[C@@H](Cc1ccccc1F)C(=O)O; Bta = N[C@@H](Cc1csc2ccccc12)C(=O)O; αAllylPro = C=CC[C@@]1(C(=O)O)CCCN1; tBuAla = CC(C)(C)C[C@H](N)C(=O)O; 3Thi = N[C@@H](Cc1ccsc1)C(=O)O; 34ClF = not defined here
reported_property: pIC50

binder="Ac-[αAllylPro]D[tBuAla][B5(18)]DNAAFT[PyrS2″][Phe(2-Cl)][Bta]S-NH2 (staple 1-4, 4-11) [I-1016]" reading=4.67
binder="Ac-[αAllylPro]D[tBuAla][B5(3)]D[Phe(3-COOH)]QAFL[PyrS2″][2F3MeF][34ClF]A-NH2 (staple 1-4, 4-11; reading uncertain) [I-2219]" reading=5.57
binder="Ac-[αAllylPro]D[tBuAla][B5(3)]D[Phe(3-COOH)]AAFL[PyrS2″][2F3MeF][34ClF]S-NH2 (staple 1-4, 4-11; reading uncertain) [I-2218]" reading=5.29
binder="Ac-[αAllylPro]D[tBuAla][B5(18)]D[TfeGA]LAFN[PyrS2″][Phe(2-Cl)][Bta]Q-NH2 (staple 1-4, 4-11) [I-1007]" reading=4.60
binder="Ac-[αAllylPro]D[tBuAla][B5(5)]DDAAFT[PyrS2″][Phe(2-F)][Bta]Q-NH2 (staple 1-4, 4-11) [I-1021]" reading=4.94
binder="Ac-[αAllylPro]D[tBuAla][B5(3)]D[Phe(3-COOH)]AAFL[PyrS2″][3Thi][34ClF]Q-NH2 (staple 1-4, 4-11; reading uncertain) [I-2216]" reading=5.47
binder="Ac-[αAllylPro]D[tBuAla][B5(3)]D[Phe(3-COOH)]AAFL[PyrS2″][3Thi][Phe(4-Cl)]Q-NH2 (staple 1-4, 4-11) [I-2220]" reading=4.79
binder="Ac-[αAllylPro]D[tBuAla][B5(5)]D[5F3Me3COOHF]QAFL[PyrS2][3Thi][Bta]A-NH2 (staple 1-4, 4-11) [I-2211]" reading=4.89
